Attribute: EC50
# EXPERIMENTAL_SYSTEM: BDBV GP (BDBV (Bundibugyo ebolavirus))
# PROCEDURE_DETAILS: ELISA

Take a look at these entries with their results.
BINDER	PARAMETER_MEASURED	TEST_RESULT
87 (antibody, V domains shown) VH: QVQLVQSGAEVKRPGASVKVSCKASGYTFTSYAISWVRQAPGQGLEWMGWISGNNGNTNYAQKLQGRLTMTTDTSTSTAYMELRSLRSDDTAVYYCARDADIVVVVGATGTYYYGMDVWGQGTLVTVSS VL: DIVMTQSPSTLSASVGDRVTITCRASQSISSWLAWYQQKPGKAPKLLIYDASSLESGVPSRFSGSGSGTEFTLTISSLQPDDFATYYCQQYKSSLRTFGQGTQLEIK	EC50	1.39 µg/mL
49 (antibody, V domains shown) VH: EVQLVESGGGLVQPGGSLRLSCAASGFTFSSYEINWVRQAPGRGLEWVSYISSSGRTIYYADSVKGRFTISRDNAKNSLYLQMNSLRAEDTAVYYCAREPYVDGILYGAGDSYFDYWGQGTLVTVSS VL: DIQMTQSPSSLSASVGDRVTITCRASQSISNYLNWYQQKPGKAPKVLIYAASSLQSGVSSRFSGSGSGTDFTLTISSLQPEDFATYFCQQSYNTPPVTFGQGTRLEIK	EC50	> 10 µg/mL
52 (antibody, V domains shown) VH: QVQLQESGPGLVKPSETLSLNCTVSGGSISSYYWSWIRQPPGKGLEWIGYIYDSGRTKYNPSLKSRVTISLDTSKNQFSLKLSSVTAADTAVYYCASLGPFDKLWFGELLPGWFDPWGQGTLVTVSS VL: EIVLTQSPATLSLSPGGRATLSCRASQSVHNYLAWYQQKSGQAPRLLIYDASNRATGIPARFSGSGSGTDFTLTISSLEPDDFAVYYCQHRSNWLTFGGGTKVEIK	EC50	1.84 µg/mL
63 (antibody, V domains shown) VH: EVQLVESGGGLVKPGGSLRLSCAASGFTLNFYNMNWVRQAPGKGLEWVSSISSSSNYIYYADSVKGRFTISRDNARKSLYLQMNSLRAEDTAVYYCARDFVQLLIPQRDEWQGVHDYYGMDVWGQGTLVTVSS VL: EIVLTQSPGTLSLSPGGRATLSCRASQSVSNSYLAWYQQKPGQAPRLLIYGASSRATGIPDRFSGSGSGTDFILTISRLEPEDFAVYYCQHYGSSQLTFGGGTKVEIK	EC50	> 10 µg/mL

Now, please, on to the next binder.
Task item: Give its EC50 value. Item: 62 (antibody, V domains shown) VH: EVQLVESGGGLVQPGGSLRLSCAASGFTFSSYWMSWVRQAPGKGLEWVANIKQDGSAKYYVDSVKGRFTISRDNAKNSLYLQMNSLRAEDTAVYYCARDGLLGISDLLYPIYYFDYWGQGTLVTVSS VL: DIVMTQSPSSLSASVGDRVTITCRASQNIGSYLNWYQQKPGKAPNLLMYAASSLQSGVPSRFSGSGSGTDFTLTITSLQPEDFATYYCQQSYSIPRTFGQGTQLEIK
Reply: 0.508 µg/mL
